# protocol-details: Area under curve (AUC) determined at a dose 10 mg/kg administered intraperitoneally to mice
# Assay type: ADME, organism-based
# Set-up: dose 10 mg/kg, route intraperitoneal
# protocol-conditions: mouse, in vivo, ip
readout-label: AUC (ng·h/mL)
# unit: ng·h/mL | format: bare number

Report AUC, nothing else, for this molecule: Cc1ccccc1NC(=O)Nc1ccc(CC(=O)N[C@@H](CC(C)C)C(=O)N2CCCCC2CC(=O)O)cc1 (stereo partly specified)
955

---

# protocol-details: Half life (t1/2) determined at a dose 10 mg/kg administered intraperitoneally to mice
# Type: ADME, organism-based
# Parameters: dose 10 mg/kg, route intraperitoneal
# protocol-conditions: mouse, in vivo, ip
readout-label: half-life (min)
Field format: number, assumed min, no unit text.

Annotate the compound Cc1ccccc1NC(=O)Nc1ccc(CC(=O)N[C@@H](CC(C)C)C(=O)N2CCCCC2CC(=O)O)cc1 (stereo partly specified) with its measured half-life.
48
